Target: T1, TNFR1 (Homo sapiens, UniProt P19438)
T1 chain: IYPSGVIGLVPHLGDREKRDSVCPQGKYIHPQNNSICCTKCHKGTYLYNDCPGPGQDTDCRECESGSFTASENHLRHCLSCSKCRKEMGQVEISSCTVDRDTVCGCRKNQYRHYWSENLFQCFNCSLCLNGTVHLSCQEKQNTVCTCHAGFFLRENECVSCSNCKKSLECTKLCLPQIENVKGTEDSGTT
Assay: yeast display SC50
Recorded apparent Kd (screen), one value per entry.

{"columns": ["BINDER", "apparent Kd (screen) / pM"],
 "data": [
  ["W70F (designed binder) MTLQELLREEALRRAEAEAFRYALELLAEKFPEQKEYLLDLAEEIESQIRSLSGVDVEDVRKFLDKEWAFVKELLAEHPAELAEVEAARAARLAELRAEVEAKVAA", 593],
  ["K103Q (designed binder) MTLQELLREEALRRAEAEAFRYALELLAEKFPEQKEYLLDLAEEIESQIRSLSGVDVEDVRKFLDKEWAWVKELLAEHPAELAEVEAARAARLAELRAEVEAQVAA", 539],
  ["E25V (designed binder) MTLQELLREEALRRAEAEAFRYALVLLAEKFPEQKEYLLDLAEEIESQIRSLSGVDVEDVRKFLDKEWAWVKELLAEHPAELAEVEAARAARLAELRAEVEAKVAA", 593]
]}
